target: CRAC channel (Rattus norvegicus, UniProt Q5M848); assay: Inhibition of thapsigargin-induced calcium influx (intracellular Ca2+, Fluo-4NW) in RBL-2H3 cells; conditions: 1 μM thapsigargin, 60 min compound incubation
Sequence (Q5M848 whole entry): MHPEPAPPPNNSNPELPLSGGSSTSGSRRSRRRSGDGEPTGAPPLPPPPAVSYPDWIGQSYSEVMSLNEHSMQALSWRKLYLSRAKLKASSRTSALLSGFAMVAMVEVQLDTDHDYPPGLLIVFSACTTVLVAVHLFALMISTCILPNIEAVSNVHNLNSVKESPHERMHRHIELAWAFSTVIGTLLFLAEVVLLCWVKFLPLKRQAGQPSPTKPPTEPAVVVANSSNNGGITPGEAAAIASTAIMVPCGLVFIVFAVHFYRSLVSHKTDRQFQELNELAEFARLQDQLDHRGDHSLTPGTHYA
Sequence (P84903 23-685, further chain): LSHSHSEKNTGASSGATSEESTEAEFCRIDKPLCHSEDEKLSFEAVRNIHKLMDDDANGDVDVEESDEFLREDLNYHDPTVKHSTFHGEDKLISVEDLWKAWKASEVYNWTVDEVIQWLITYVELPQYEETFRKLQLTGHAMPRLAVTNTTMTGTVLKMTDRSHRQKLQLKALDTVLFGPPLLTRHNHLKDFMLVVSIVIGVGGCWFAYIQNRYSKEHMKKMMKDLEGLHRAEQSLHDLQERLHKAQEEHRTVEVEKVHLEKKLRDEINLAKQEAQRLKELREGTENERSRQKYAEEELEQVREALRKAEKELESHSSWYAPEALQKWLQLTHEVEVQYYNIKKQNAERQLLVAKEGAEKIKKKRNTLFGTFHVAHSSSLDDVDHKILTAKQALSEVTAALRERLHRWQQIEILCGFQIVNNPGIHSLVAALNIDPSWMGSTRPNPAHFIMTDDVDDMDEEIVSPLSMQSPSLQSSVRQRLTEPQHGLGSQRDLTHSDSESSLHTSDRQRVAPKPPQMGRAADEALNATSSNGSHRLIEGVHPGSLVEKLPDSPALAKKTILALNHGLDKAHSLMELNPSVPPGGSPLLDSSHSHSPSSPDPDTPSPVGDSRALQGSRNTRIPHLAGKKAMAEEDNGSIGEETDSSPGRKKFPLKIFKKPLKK
ASSAY_METRIC: IC50 (µM)
Hi! Could you send only the number? It should be in µM, unit omitted.

Req: // lookup IC50 for O=C(Nc1nn(Cc2ccc(Cl)cc2Cl)c2ccccc12)c1ccccc1F
Resp: 29
